Assay: Lipophilicity by RP-HPLC (log k'w)
Type: physicochemical
Conditions: RP-HPLC C18, MeOH/10 mM ammonium formate buffer pH 4.5, extrapolated to 100% aqueous mobile phase, 25 °C
Method: To place on a more quantitative basis the above SAR trends, the lipophilicity of a number of isatin arylhydrazone derivatives was measured by an RP-HPLC method. The polycratic capacity factors (log k’w) were determined (details in the Experimental Section). Lipophilicity descriptors (i.e., 1-octanol–water partition coefficients) were also calculated (CLOGPs) using two computational tools (Bio-Loom software, v. 1.7 and ACDLabs software, release 10.0). […]
Criterion: log k'w strictly under 5. Met: Yes. Not met: No.

Recorded results for 3 compounds are shown here.
INSERT INTO measurements (query_smiles, category_label) VALUES
  ('COc1ccc2c(c1)/C(=N/Nc1ccc(C(C)C)cc1)C(=O)N2Cc1ccccc1', 'No'),
  ('COc1ccc2c(c1)/C(=N/Nc1nc(CCl)cs1)C(=O)N2', 'Yes'),
  ('COc1ccc2c(c1)/C(=N/Nc1ccc(C(C)C)cc1)C(=O)N2C', 'No');

Q) Does this compound meet the criterion log k'w < 5? COc1ccc2c(c1)/C(=N/Nc1ccc(C(C)C)cc1)C(=O)N2
A) No

Q) Lab note: record k'w threshold 5. Does this compound come in strictly under it? COc1ccc2c(c1)/C(=N/N(C)c1ccc(C(C)C)cc1)C(=O)N2C
A) Yes

Q) A record lists COc1ccc2[nH]cc(/C=N/Nc3ccc(C(C)C)cc3)c2c1 . Is its log k'w below 5?
A) No

Q) Lab log: compare recorded log k'w with 5; is it strictly lower for COc1cccc(-c2csc(N/N=C3\C(=O)Nc4ccc(OC)cc43)n2)c1 ?
A) No

Q) Find out if reported log k'w for COc1ccc2c(c1)/C(=N/Nc1ccc(C(C)C)cc1)C(=O)N2CCCc1ccccc1 is less than 5
A) No

Origin of the recorded values: paper PMC6100259
